# ASSAY_METHOD_TEXT: protein stability index of a GFP-peptide fusion (GPS, HEK-293T) (PSI 1-6); higher = more stable;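 note: 24-mer peptide tiles fused after GFP, lentivirally expressed, FACS-sorted into six equal bins by GFP/DsRed ratio, decoded by Illumina sequencing, PSI is the read-weighted mean bin number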
# PARTICULARS: treatment: MLN4924 1 uM, 8 h; c terminus: a fixed tail appended
Assign protein stability index to each entry below.
I only need the number, thanks.

Which protein stability index reading was recorded for the sequence TVVREVIFLGFSSLARLQQLLFVI [OR10K2] ?
2.87

Which protein stability index reading was recorded for the sequence DALLGIDDLETMPDDLLTTLDDTC [ATF4] ?
5.05

Which protein stability index reading was recorded for the sequence LLLEPGSLYILRGSARYDFSHEIL [ALKBH7] ?
2.58

* * *

# ASSAY_METHOD_TEXT: protein stability index of a GFP-peptide fusion (GPS, HEK-293T) (PSI 1-6); higher = more stable
# PARTICULARS: treatment: DMSO; c terminus: a fixed tail appended
MEASURED_ENDPOINT: protein stability index
I only need the number, thanks.

Which protein stability index reading was recorded for the sequence GEQPQFWSKTQVLDWISYQVEKNK [ELF3] ?
3.02

Which protein stability index reading was recorded for the sequence MSSYTVAGRNVLRWDLSPEQIKTR [NLN] ?
2.99

Which protein stability index reading was recorded for the sequence VRSQTLPRTSEAQARKALFEKWEQ [SMTNL2] ?
3.98

Which protein stability index reading was recorded for the sequence EDWLSHALSRKKSQGLAREQHAGT [FBF1] ?
3.9

* * *

# ASSAY_METHOD_TEXT: protein stability index of a GFP-peptide fusion (GPS, HEK-293T) (PSI 1-6); higher = more stable
# PARTICULARS: treatment: MLN4924 1 uM, 8 h; c terminus: a fixed tail appended
Assign protein stability index to each entry below.
I only need the number, thanks.

Which protein stability index reading was recorded for the sequence FVDSIRRQFEFSVDSFQIILDSLL [TENT5C] ?
2.31

Which protein stability index reading was recorded for the sequence LWASQREKEVLRRERAVEWRERAV [ZBED2] ?
3.38

Which protein stability index reading was recorded for the sequence FPGRPMGHLSKDVDENDSHEGEDQ [DLC1] ?
5.06

Which protein stability index reading was recorded for the sequence SEEMVKMVLSRPCHPDDQFTTSIL [INTS3] ?
2.98

Which protein stability index reading was recorded for the sequence EVKFPNASDMFRRLRDAGFRVTLW [MYORG] ?
2.17

Which protein stability index reading was recorded for the sequence ALKEKEKASWSSLSMDEKVELYRI [COX4I1] ?
3.95

Which protein stability index reading was recorded for the sequence PVRRIDGLTDVSQIITVTVQTGLD [IQUB] ?
2.45

Which protein stability index reading was recorded for the sequence VLTAVDGGTPARSGTTLISVIVLD [PCDHGC5] ?
2.26

Which protein stability index reading was recorded for the sequence SDYESIEVPDSYTGPRLSFPLLPD [PPEF2] ?
4.09

Which protein stability index reading was recorded for the sequence RKSSFAFYQAVRDLLPVWLLEDMR [ANKRD9] ?
2.21

Which protein stability index reading was recorded for the sequence RLICDFPFDGLLEERALLLGRMGK [VPS39] ?
2.28

Which protein stability index reading was recorded for the sequence MEAVLNELVSVEDLLKFEKKFQSE [FIS1] ?
3.65

Which protein stability index reading was recorded for the sequence LWARGTWTQATGLGCALLAAHAVV [SOAT2] ?
3.2

Which protein stability index reading was recorded for the sequence GTSTWQFNFKFNLTEDMYAQDSIE [CNOT7] ?
2.59

Which protein stability index reading was recorded for the sequence HLPADSEVTLEANPTSAPGSRLAE [RSAD1] ?
5.39

Which protein stability index reading was recorded for the sequence HLRPELRSQMQGPRTRARLGANEV [KLHL12] ?
4.22

Which protein stability index reading was recorded for the sequence ETIKDLMRQFLRGLDFLHANCIVH [CDK4] ?
3.23

Which protein stability index reading was recorded for the sequence EVQKLVESGVDVNSQNEVNGWTCL [ANKRD40] ?
3.33

Which protein stability index reading was recorded for the sequence SGGGGGGGGGGGGGKSGGIVISPF [CCDC6] ?
3.37
